Biological target: human AT2R (Homo sapiens, UniProt P50052)
Construct: Tb (terbium) label on the receptor; expressed in transfected cells
Sequence (P50052 whole entry): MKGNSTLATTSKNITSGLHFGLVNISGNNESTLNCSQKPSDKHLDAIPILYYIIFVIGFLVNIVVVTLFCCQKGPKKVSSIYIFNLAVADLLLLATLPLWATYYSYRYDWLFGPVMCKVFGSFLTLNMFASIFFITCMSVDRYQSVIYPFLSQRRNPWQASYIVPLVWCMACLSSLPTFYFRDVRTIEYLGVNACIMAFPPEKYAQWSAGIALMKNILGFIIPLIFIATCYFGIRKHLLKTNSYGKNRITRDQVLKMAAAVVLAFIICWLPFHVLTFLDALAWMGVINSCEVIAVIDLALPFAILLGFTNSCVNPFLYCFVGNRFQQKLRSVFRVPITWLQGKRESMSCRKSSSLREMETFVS
Assay: Antagonistic activity against human AT2R ligand binding (Tag-lite HTRF)
Details: Tb-labeled-AT2R cells, red agonist fluorescent ligand, 1 hour at 25° C.
property_measured: IC50 (nM)

>>> observed_value("COc1ccc(COc2c(OC)ccc3c2C[C@@H](C(=O)[O-])N(c2nc4ccc(F)cc4o2)C3)nc1.[Na+]")
6

* * *

Assay: Solubility test
Assay type: physicochemical
Details: methanol, organic solvent or mixture
property_measured: solubility

>>> observed_value("COc1ccc(COc2c(OC)ccc3c2C[C@@H](C(=O)[O-])N(c2nc4ccc(F)cc4o2)C3)nc1.[Na+]")
"> 10000 µg/mL"
>>> observed_value("COc1ccc(COc2c(OC)ccc3c2C[C@@H](C(=O)O)N(c2nc4ccc(F)cc4o2)C3)nc1")
"340 µg/mL"
